# Tested on: Escherechia coli
# ASSAY TEXT: in vivo antibacterial activity against acute infections in mice, oral
# REPORTED CONDITIONS: Escherichia coli, in Mus musculus, po, 96 h, read-out: percent animals which survived, E. coli, *200 mg./kg., mice, oral, 200 mg./kg. (footnote *)
Measured responders at 200 mg/kg of individual entries
PROPERTY NAME: responders at 200 mg/kg (%)

molecule_smiles=Cc1c(C(=O)OCCOC(=O)CCl)[n+]([O-])c2ccccc2[n+]1[O-] readout_units=% meas_value=100
molecule_smiles=CCCCCCCC(=O)OCCOC(=O)c1c(C)[n+]([O-])c2ccccc2[n+]1[O-] readout_units=% meas_value=100
molecule_smiles=CCCCC(=O)OCCOC(=O)c1c(C)[n+]([O-])c2ccccc2[n+]1[O-] readout_units=% meas_value=100
molecule_smiles=CCC(=O)OCCOC(=O)c1c(C)[n+]([O-])c2ccccc2[n+]1[O-] readout_units=% meas_value=90
